- Test system: K-562 leukemia
- assaySummary: NCI tumour cell line growth inhibition, 48 h; in the data active = GI50 below about 0.43 µM; inactive = the rest
*1 amine or outer side, *2 acyl side, *3 side chain or, on linkers, in order; H or OH if unused. Where a SMILES comes first, the peptide text is derived from it. Bridges are numbered along the chain shown (N, C = ends). [ ]: non-standard residue; d: D form. The star is where a group is joined. Phe(3-Me) = Cc1cccc(C[C@H](N)C(=O)O)c1; NH(4-Cl-2-F-phenyl) = Fc1cc(Cl)ccc1N*; Pro(4R-Me) = C[C@H]1CN[C@H](C(=O)O)C1; Propanoyl(3-NMe2) = CN(C)CCC(=O)*; Hyp = O=C(O)[C@@H]1C[C@@H](O)CN1; aThr = C[C@H](O)[C@H](N)C(=O)O; Pip = O=C(O)[C@@H]1CCCCN1; CO = O=C([*:1])[*:2]
Valid outcomes are listed here; reply with one: active, inactive

### Prompt What did the test return for "O=C(Nc1ccc(Br)cc1F)c1cc(Br)ccc1O" ?
### Response inactive

### Prompt What did the test return for Cc1cccc(C[C@H](NC(=O)Nc2ccc(Cl)cc2F)C(=O)N[C@@H]2C(=O)N3C[C@H](OC(=O)CCN(C)C)C[C@H]3C(=O)N3CCCC[C@H]3C(=O)N[C@@H](C)C(=O)N3C[C@H](C)C[C@H]3C(=O)O[C@H]2C)c1 ({NH(4-Cl-2-F-phenyl)-CO}-[Phe(3-Me)][aThr][Hyp](Propanoyl(3-NMe2))[Pip]A[Pro(4R-Me)]; ester 2-C) ?
### Response active

### Prompt What did the test return for "O=C([O-])c1ccccc1Nc1ccccc1[O-].[Ni+3].[OH3+].[OH3+].[OH3+]" ?
### Response inactive

### Prompt What did the test return for "O=C(CCl)Nc1ccc2c(c1)C(=O)c1ccc(NC(=O)CCl)cc1C2=O" ?
### Response active

### Prompt What did the test return for CSc1nc2c(c(=O)[nH]1)C(c1ccc(Cl)cc1)C1=C(N2)/C(=C/c2ccc(Cl)cc2)CNC1 (configuration not stated) ?
### Response inactive

### Prompt What did the test return for "COc1ccc(Cn2c(Br)c3c(c2-c2cc(OC)c(OC)c(OC)c2)CCc2sc(NC(C)=O)nc2-3)cc1" ?
### Response inactive

### Prompt What did the test return for "CC(C)Oc1ccc(C(=O)N[C@H](CNC(=O)CN(C)C)Cc2ccc(-c3cn4cccc([C@H](C)O)c4n3)cc2)cc1Cl" ?
### Response active
